Values from patent US5627198A

- System: arterial blood pressure, conscious rat
- experimentDescription: Effects on blood pressure in vivo, conscious rat
- Design: species or system Sprague-Dawley rats
- conditionDescription: 6 mg/kg peroral, 30 min
measure: Reduction in diastolic pressure, % of initial value

{"columns": ["compound", "observedResult"],
 "data": [
  ["CC(O)(C(=O)Nc1ccc(C(=O)c2ccccc2)s1)C(F)(F)F (stereo not shown) [Example 1]", "3 % of initial value"],
  ["CC(O)(C(=O)Nc1nnc(C(=O)c2ccccc2)s1)C(F)(F)F (stereo not shown) [Example 3]", "3 % of initial value"],
  ["CC(O)(C(=O)Nc1ccc(S(=O)(=O)c2ccccc2)s1)C(F)(F)F (stereo not shown) [Example 4]", "5 % of initial value"]
]}

// lookup Reduction in diastolic pressure, % of initial value for CC(O)(C(=O)Nc1ncc(C(=O)c2ccccc2)s1)C(F)(F)F (stereo not shown) [Example 2]
8 % of initial value
